All values here come from the supplement of paper PMC5579334.

# Tested on: STS26T
# procedure-details: % inhibition of CellTiter-Glo viability at highest tested concentration (72 h), relative to DMSO and benzethonium chloride controls; higher = more inhibition
Here the recorded % inhibition is given for each entry.
Numeric answer only, unit % assumed.

Here are 6 compounds together with their reported answers.
[
  {
    "compound": "Cc1cc2c(F)c(Oc3ncnn4cc(OC[C@@H](C)O)c(C)c34)ccc2[nH]1 [Brivanib] (max concentration tested 1000 nM)",
    "units-text": "%",
    "reported": 4.35
  },
  {
    "compound": "CNC(=O)c1ccc(N2C(=S)N(c3ccc(C#N)c(C(F)(F)F)c3)C(=O)C2(C)C)cc1F [Enzalutamide] (max concentration tested 10000 nM)",
    "units-text": "%",
    "reported": 3.2
  },
  {
    "compound": "O=C(CCCCCCC(=O)Nc1ccccc1)NO [Vorinostat] (max concentration tested 10000 nM)",
    "units-text": "%",
    "reported": 83.9
  },
  {
    "compound": "Cn1cnc2c(F)c(Nc3ccc(Br)cc3Cl)c(C(=O)NOCCO)cc21 [Selumetinib] (max concentration tested 10000 nM)",
    "units-text": "%",
    "reported": 33.6
  },
  {
    "compound": "C=CC(=O)N1CCC[C@@H](n2nc(-c3ccc(Oc4ccccc4)cc3)c3c(N)ncnc32)C1 [Ibrutinib] (max concentration tested 1000 nM)",
    "units-text": "%",
    "reported": 2.46
  },
  {
    "compound": "N#CCNC(=O)c1ccc(-c2ccnc(Nc3ccc(N4CCOCC4)cc3)n2)cc1 [Momelotinib] (max concentration tested 10000 nM)",
    "units-text": "%",
    "reported": 58.8
  }
]

Can you share its % inhibition? I mean this compound: Nc1nc2[nH]cnc2c(=S)[nH]1 [Thioguanine] (max concentration tested 10000 nM)
81
